Each item that follows carries a reported Expression Normalization to mAb 65C12.
- test_system: T1, human ASGR-1 mutant construct H203 (human, UniProt P07306 1-291)
- T1 construct: Arg/Glu scanning: non-arginine residues were changed to arginine; Transiently expressed on CHO-S cells
- T1 sequence: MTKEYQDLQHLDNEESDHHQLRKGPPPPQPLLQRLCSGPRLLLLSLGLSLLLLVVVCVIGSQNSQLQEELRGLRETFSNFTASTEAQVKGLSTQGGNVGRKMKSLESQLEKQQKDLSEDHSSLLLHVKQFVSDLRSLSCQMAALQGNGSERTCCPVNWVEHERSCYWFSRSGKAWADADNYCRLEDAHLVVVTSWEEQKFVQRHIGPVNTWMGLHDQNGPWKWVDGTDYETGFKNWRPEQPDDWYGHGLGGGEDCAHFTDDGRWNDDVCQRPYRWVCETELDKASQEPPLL
- test_details: FACS ratio: 65C12 geomean / this mAb geomean
I'd appreciate a reply containing only the number, no unit.

Reference set (5 entries):
binder	Expression Normalization to mAb 65C12
72F5 (antibody, V domains shown, mAb) VH: EVQLLESGGGLVQPGGSLRLSCAASGFTFSSYAMIWVRQAPGKGLEWVSTISGSGGYTYSADSVKGRFTISRDNSKNTLYLQMNSLRAEDTAVYYCARRIAVTGTEWYDPWGQGTLVTVSS VL: DIQMTQSPSSLSASVGDRVIIPCRASQNISSYLNWYQQKPGKAPKLLIYAASSLQSGVPSRFSGSGSGTDFTLTISSLQPEDFATYSCQQTYSTPTFGQGTRLDIN	2.45
175F4 (antibody, V domains shown, mAb) VH: QVQLQQSGPGLVKPSQTLSLTCAISGDSVSSNSAAWNWIRQSPSRGLEWLGRTYYRSKWYNAYPVSMESRISINPDTSKNQFSLQLNSVTPEDTAVYYCARDKAAGRNDFYYYGMDVWGQGTTVTVSS VL: QSALTQPASVSGSPGQSITISCTGTSSDVGRFNLVSWYQQHPGYAPKLMIYEVSKRPSGVSNRFSGSKSGNTASLTISGLQAEDEADYYCCSYAGSSTYVVFGGGTKLTVL	1.74
65C12 (antibody, V domains shown, mAb) VH: EVQLVESGGGLVKPGGSLRLSCAASGFTFRSFSLNWVRQAPGKGLEWVSSISSSSSYIYYADSVKGRFTISRDNAKNSLYLQMNSLRAEDTAVYYCARDAYSHYWGQGTLVTVSS VL: EIVMTQSPATLSVFPGEGATLSCRASQSVSINLAWYQQKPGQAPRLLIYGASTRATGIPARFNASGSGTEFTLSISSLQSENFAVYYCQQYNTWPLTFGGGTKVEIK	1
191G10 (antibody, V domains shown, mAb) VH: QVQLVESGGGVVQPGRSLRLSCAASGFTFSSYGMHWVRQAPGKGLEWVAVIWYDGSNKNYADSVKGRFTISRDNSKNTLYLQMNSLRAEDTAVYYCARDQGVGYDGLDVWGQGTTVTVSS VL: DIQMTQSPSSLSASVGDRVTITCRTSQGIGKYLAWFQQKPGKAPKSLLYKVSSLQSGVPSKFSGSGSGTDFTLTISSLQPEDFATYYCQQYMTYPLTFGGGTKVEIK	1.51
50G9 (antibody, V domains shown, mAb) VH: QVQLVESGGGVVQPGRSLRLSCAASGFIFSSYGMHWVRQAPGKGLEWVAVISQDGIIRYYADSVKGRFTISRDNSKNTLYLQMNSLRAEDTAVYYCARDVKQWLVRTYGMDVWGQGTTVTVSS VL: SYELTQPPSVSVSPGQTASITCSGDKLGDKYACWYQQKPGQSPVLVIYQDSKRPSGIPERFSGSNSGNTATLTISGTQARDEAEYYCQARNSRRGVFGGGTRLTVL	17.1

Now for another entry.
Using the record for 72G9 (antibody, V domains shown, mAb) VH: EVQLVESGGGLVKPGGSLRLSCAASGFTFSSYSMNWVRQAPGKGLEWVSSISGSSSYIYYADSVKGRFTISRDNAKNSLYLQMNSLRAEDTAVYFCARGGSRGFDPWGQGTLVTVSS VL: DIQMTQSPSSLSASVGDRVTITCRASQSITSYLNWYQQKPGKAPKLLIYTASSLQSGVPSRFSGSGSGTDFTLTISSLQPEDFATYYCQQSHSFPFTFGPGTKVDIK , state its measured Expression Normalization to mAb 65C12.
1.37
